Assay: soluble fraction after stress (log2 fold change); higher = more stays soluble; pooled small domains, quantitative proteomics
Details: stress: 50 degC
# soluble fraction (log2) per entry
// print number alone

Known results for sequences:
INSERT INTO measurements (residue_string, recorded_metric, numeric_value) VALUES
  ('HMQQIAVDLSEFKPRLMRDMSSMLAGLYTHDLDLSSLDFSKVANFTFMFRGAIITGTLKMPKI', 'soluble fraction (log2)', 0.00375),
  ('HMQRRHESTPIPADFDYAAVRGLSAEVQQKLERVRPLSIGQAQRIPGMTPAAISLLLVHLERQRRSRV', 'soluble fraction (log2)', -0.152),
  ('HMDFSSRLKDERKRLKLSQAQLGEAGGVSKDAQLNYENGSRSPSASYLELIAREGVDVQFLLTGKRS', 'soluble fraction (log2)', 0.0732),
  ('HMDNPNVMAQVKSLLASKGLSEQEVKERLKAKGLNIDAMSDAEIAQNRSVIEQTIAELEAEKKKAG', 'soluble fraction (log2)', -0.128),
  ('HMINLRTALNNAGVMQKELSDILYMTPQDVNRRFSGVTKWKPLEKRAIMQFLEDRGFEYTEEQLF', 'soluble fraction (log2)', -0.532);

Query block: Specify measured soluble fraction (log2) for HMSQIANLLLSKNIKVNNQNIIYYETVLKYLPNNEKKEFFINAMKNNIYFTEEEIKNFGNIFN .
Result block: -1.66

Query block: Answer with the recorded soluble fraction (log2) for the sequence listed here: HMTERIRLHDDIGSWVEKHGATRSALIPVLQGIQRSYNEISEYAMQEVADRLDIHPVEVYSVVSFYSF
Result block: -0.0419

Query block: Identify measured soluble fraction (log2) corresponding to HMKNYYRILGLNIDAEYEEIKAAYRILAQRHHPDKGGAAAEFRLIQEAYDILSNPLTKRNYDADLLATLN
Result block: -0.521

* * *

Measured soluble fraction (log2), listed per entry.
Experiment: soluble fraction after stress (log2 fold change); higher = more stays soluble; pooled small domains, quantitative proteomics
Settings: stress: 50 degC
Format: numeric value only, no unit, no commentary.

INSERT INTO results (residue_string, recorded_metric, numeric_value) VALUES
  ('HMPRNEIQRSVLNELVQWIKNNLAKKLTMQALSRFSGYSEWHLFRLFRHYFNMSPMAYIRQQRMQ', 'soluble fraction (log2)', -0.265);

Query block: Tell us which soluble fraction (log2) value is on record for HMNLYENLATHVKNAIRQGVYQPGDRLPSVRRLSEQHRVSQNTAVSAYRLLESHGWLEARPQSGFFARHP
Result block: -1.11

Query block: Indicate its recorded soluble fraction (log2); the sequence in question is HMISEAEGTILQLLKEADGTLPFTYKSDADEIKKVFGMSKKNFKRTLTELIEAKKIQLLDDAIVL
Result block: -0.459

Query block: Look up and state reported soluble fraction (log2) for HMDEKSGWLHLAPHEGALRAALYAEHAVQEERTAPDGSQWLRLVLREKHYHQIQSKYNRRLTLHTQPDPS
Result block: 0.113

Query block: Return soluble fraction (log2) for the following sequence: HMKPVTNHTVKFYVDDVLWKTVTVKHGGNVRLADLPMSDGKTFVGWSESVVNVTKDLTVFALFS
Result block: -0.562

Query block: Consider the sequence HMIEQIELEARVPDELGGQRLDQVAAQMFDDFSRSRLTGWIRDGSLTADGQQLRPRDIVYGGTLLQLKAEQ and give its recorded soluble fraction (log2).
Result block: 0.00374

Query block: Give the reported value of soluble fraction (log2) for this record: HMRLPQEVWEKIRAAYEAHGLSFSELAEMYGVNKSNISRRAKAEGWNQAETQRLITATVENE
Result block: 0.267

Query block: Kindly indicate its recorded soluble fraction (log2). Item: HMADVSPEAQHKMVEAFAQFGVTKEHIEQRIQRRLDAIQPAQMVTLKRIFASLRDGMSTPAEWFE
Result block: -0.227

* * *

Assay: soluble fraction after stress (log2 fold change); higher = more stays soluble; pooled small domains, quantitative proteomics
Conditions: stress: 50 degC
// label = yes (1) if soluble fraction (log2) is not less than -0.3, otherwise no (0)

Example cases with answers are listed next.
INSERT INTO results (residue_string, class_name) VALUES
  ('HMDDDIKNALDVLPEQYRMTVYYADVEGLAYKEIGAIMNTPIGTVMSRIHRGRSQLRVLLAAVAADR', 'yes (1)'),
  ('HMIEDMTINIEERLSLNGDIKKSEYILQYIKPDFIRKVILSPELNKGEIYIYDSKKKVMYLPLFDQVSEEI', 'no (0)'),
  ('HMFTKYSPDFKLSVILDMRKNNLGYGEVVRKYWNLDSYKESDRHRSQVRLWERIFLEEGVEGFM', 'no (0)'),
  ('HMVPSTAVIFTELVSMRSEPATKSPVTHQLTKGTAITINEEKDGWYQVTDQTGNSGWIVKWAVKPTYFTNP', 'yes (1)'),
  ('HMDKATMRWEQIEKFLETHPYIMNADVRALFNVSAATANRILATLTTEGKLVKYREGGHWAYKY', 'no (0)'),
  ('HMTKSTLQRQKIIADLIESGNISSQNQLKGLLKKNSLLITQATLSRDLSELGAIKKRQKDGLLVYVLPK', 'no (0)');

Query block: Check if soluble fraction (log2) >= -0.3 (inclusive). Item: HMTPQVALNDTETAIYEKMKQEKQMLLGELRAQFDISNKLWDTSLKTLTKNQLLAVSKEDDLLFVKL
Result block: yes (1)

Query block: Is soluble fraction (log2) at least -0.3? Consider HMGVGVTAPLAGNIFKIVKQPGDVVASGDVVLILEAMKMETEIRAAAGGTVKQVLVREGDAVDAGHTLMTL
Result block: no (0)

* * *

Assay: soluble fraction after stress (log2 fold change); higher = more stays soluble; pooled small domains, quantitative proteomics
Conditions: stress: 50 degC
Assign met to entries whose soluble fraction (log2) meets or exceeds -0.2; assign not met to the rest.

# count of solved cases: 7
INSERT INTO measurements (residue_string, class_name) VALUES
  ('HMATHWHITPNPNNGKFLISGLMQDDSFHLMDASGQWLRQLRTVNQELDLDLQPGVYFLKDNSGSVMKFVV', 'not met'),
  ('HMSNIIGNTAYSAIPDKQYFRLKSETAEKVANYLTENNIPFSGRINGDKTTLTIGQKNVDDYKAAVATVTG', 'met'),
  ('HMDLRAPKPIKEMGEEYIKLYQYLRKGESENIVMSKMNISLDDYDYMRSEIEDKLSLYNMLDLLRKP', 'not met'),
  ('HMKKVRIPDDPEEAYRKALKTAMNIVGYKDNTEFTLREKLSERGYSGETVDAVAEFMKSKGYV', 'met'),
  ('HMDVNSRIRQFLKKMKITVQTFESSIGKTNGYIAHTKSPTAGVLAEIAKVYPDLNLDWLITGEGEMLKN', 'not met'),
  ('HMITIDADTGKRVYTRKEVADLVGASTQSIRLWEDAGAIPASVRDEGGYRYWYEEDLEAIKAYAS', 'met'),
  ('HMRNAAGGIYGWMTLHQVAETVKLTEEEVIAITNLPAGIPRDVSLKNIEGVNDEELRALLEAYLEKQ', 'met');

Query block: State whether the measured soluble fraction (log2) reaches -0.2, counting equality as reaching it, for HMHELKIEKVAEAPNGAMRLLLSDGSEWVLGVKSWNRLNLSLEKILDVNVLRALEKESQYHLLRTKALEL
Result block: not met

* * *

Item-by-item account of soluble fraction (log2)
Experiment: soluble fraction after stress (log2 fold change); higher = more stays soluble; pooled small domains, quantitative proteomics
Details: stress: 50 degC
Please give only the number in your answer, with no unit.

INSERT INTO assay_data (residue_string, recorded_metric, numeric_value) VALUES
  ('HMLTGESDNVEKSINKLGTENLALADQTNMGFKGTFINSGHGMAIVVKTGMQTELGKIASMIQIA', 'soluble fraction (log2)', 0.21);

Query block: Indicate its recorded soluble fraction (log2); the sequence in question is HMVAGGTVSRKLSIETGLPKRKSLIGSWLDQNSVWHNIISVRHRNGYGDGVNYGFYLRSLLTSEGNLAW
Result block: -0.114

Query block: Provide only the value of recorded soluble fraction (log2) for HMAVRLADMAAEKIRKMIIENKFDAGEPLSEMRLAEMFNVSRTPIREAIAILEQEGLLTTVHGKGAFIS
Result block: -0.367

Query block: Kindly indicate its recorded soluble fraction (log2). Item: HMPEIFYRKIHRTDHDQIALDAEMIRLLIAIDEKKSLSQIAAEVQMEPMALKKNLGKLIQLGLVEPIK
Result block: 0.137

* * *

Assay: soluble fraction after stress (log2 fold change); higher = more stays soluble; pooled small domains, quantitative proteomics
Conditions: stress: 50 degC
Rule: soluble fraction (log2) of -0.03 or more gives Criterion met; anything lower gives Criterion not met.

See these solved cases before continuing.
INSERT INTO results (residue_string, class_name) VALUES
  ('HMDDIVFPNPTKNQINVSIDGLKNIYNLSGKLLISTNDKIIDVSILKAGVYFINTNEQFYKFVK', 'Criterion not met'),
  ('HMDDTPLNNVIKKIAALPENITLADKSAVLSAWEAYQALSVNLKAQVSNSELLIKAYETILQLEGEDQIK', 'Criterion met'),
  ('HMGRMTRKDRALATDLYGRIVGNVDDFHEGRIDYETFSERQRGLWTTLDAAGPEVKRAVLADIRERL', 'Criterion not met'),
  ('HMRAVPSIAFVTQKLIEQGVTMEQLVRSLLLDHEEYENDDSLERTADELFGKARMIISNYTPE', 'Criterion not met'),
  ('HMHSQVFTDPDKAKNAVVKLGAPLVVKADGLALGKGVIIAQNPQAAKEAVASVGSSGISSISVT', 'Criterion met'),
  ('HMAKIDSRKALIDQLTTTFTRAQLEELITKNELSTDARFFLSQWNAKGWIRKTAKNVYEKLR', 'Criterion not met'),
  ('HMEIDDPWLILGINAGSSIEIAQKAWKDLASQNHPDKLIANGVPKELLGMANEKLAIINGAYDKILKAHKI', 'Criterion not met');

Now turn to the next sequence.
Query block: Could you tell me if the measured soluble fraction (log2) of HMYVSGVPAITSIERVSTPGRRVYAGYTTVPKVIGGMGVSILTTSRGVMTDAEARRQKVGGELLAKV reaches -0.03 or more?
Result block: Criterion not met
